target: PDZ protein (GST-PDZ fusion) (Homo sapiens, UniProt Q8NI35); construct: made in house; host or cells: E. coli (DH5alpha, BL21 or JM109); assay: G' assay (10 uM PL peptide), results of TABLE 7 and TABLE 12; type: binding; conditions: PDZ INADL, PDZ Domain 8
Sequence (Q8NI35 whole entry, the tested form may be a part): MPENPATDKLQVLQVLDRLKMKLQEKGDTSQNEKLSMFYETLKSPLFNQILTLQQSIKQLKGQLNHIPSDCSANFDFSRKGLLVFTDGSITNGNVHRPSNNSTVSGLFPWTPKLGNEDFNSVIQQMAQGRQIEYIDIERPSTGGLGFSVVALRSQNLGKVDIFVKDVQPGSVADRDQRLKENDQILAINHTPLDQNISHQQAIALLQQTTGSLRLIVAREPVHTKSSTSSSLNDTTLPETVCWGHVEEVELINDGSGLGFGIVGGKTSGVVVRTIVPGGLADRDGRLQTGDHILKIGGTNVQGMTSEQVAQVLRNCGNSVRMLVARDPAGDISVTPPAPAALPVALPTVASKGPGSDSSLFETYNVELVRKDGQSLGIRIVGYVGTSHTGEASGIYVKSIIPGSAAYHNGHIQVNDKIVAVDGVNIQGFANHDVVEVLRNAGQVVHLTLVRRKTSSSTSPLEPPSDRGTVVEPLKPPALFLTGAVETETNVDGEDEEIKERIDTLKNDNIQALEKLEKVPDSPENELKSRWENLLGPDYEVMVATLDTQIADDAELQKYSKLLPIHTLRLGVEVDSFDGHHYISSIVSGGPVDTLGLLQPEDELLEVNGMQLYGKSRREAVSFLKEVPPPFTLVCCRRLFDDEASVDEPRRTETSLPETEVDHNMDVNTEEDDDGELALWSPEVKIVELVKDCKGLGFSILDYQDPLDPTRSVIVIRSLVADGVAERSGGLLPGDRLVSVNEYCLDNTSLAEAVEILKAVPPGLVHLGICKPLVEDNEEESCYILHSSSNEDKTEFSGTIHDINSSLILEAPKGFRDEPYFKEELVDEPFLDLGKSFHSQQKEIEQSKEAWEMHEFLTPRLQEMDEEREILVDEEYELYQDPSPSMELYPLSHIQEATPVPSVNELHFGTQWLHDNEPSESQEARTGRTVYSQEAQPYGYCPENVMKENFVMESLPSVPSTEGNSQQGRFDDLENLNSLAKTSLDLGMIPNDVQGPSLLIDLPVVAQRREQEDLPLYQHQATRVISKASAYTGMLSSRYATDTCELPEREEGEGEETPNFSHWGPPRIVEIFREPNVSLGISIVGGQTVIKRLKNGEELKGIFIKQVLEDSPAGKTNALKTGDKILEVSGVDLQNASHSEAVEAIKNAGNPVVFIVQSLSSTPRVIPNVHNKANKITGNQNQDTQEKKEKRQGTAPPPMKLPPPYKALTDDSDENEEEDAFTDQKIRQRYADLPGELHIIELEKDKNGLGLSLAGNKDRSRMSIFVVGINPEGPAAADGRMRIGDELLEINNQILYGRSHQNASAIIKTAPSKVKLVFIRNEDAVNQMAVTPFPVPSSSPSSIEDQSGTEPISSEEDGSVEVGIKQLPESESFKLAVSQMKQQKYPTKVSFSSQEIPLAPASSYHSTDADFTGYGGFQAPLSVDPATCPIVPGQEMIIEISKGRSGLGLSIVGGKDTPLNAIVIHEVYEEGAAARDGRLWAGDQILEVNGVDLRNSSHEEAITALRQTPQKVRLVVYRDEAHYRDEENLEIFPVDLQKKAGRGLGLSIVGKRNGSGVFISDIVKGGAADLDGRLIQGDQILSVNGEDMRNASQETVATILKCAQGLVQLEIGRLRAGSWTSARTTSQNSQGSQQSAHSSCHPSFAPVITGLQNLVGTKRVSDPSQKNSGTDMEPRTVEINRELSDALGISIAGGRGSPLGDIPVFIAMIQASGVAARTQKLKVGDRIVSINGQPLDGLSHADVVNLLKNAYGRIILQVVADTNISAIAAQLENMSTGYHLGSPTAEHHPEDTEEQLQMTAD
Ends that are not written are not given here. * marks the point of attachment. Biotin = O=C1N[C@H]2[C@H](CS[C@H]2CCCCC(=O)*)N1
endpoint: Classification

Study these solved cases before continuing.
APC—adenomatous polyposis coli protein (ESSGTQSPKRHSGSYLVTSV) ... 2 (A450 nm 1-2)
SYPTPRPYPKPAPSSGKDYV (Biotin-SYPTPRPYPKPAPSSGKDYV) [claudin 1] ... 1 (A450 nm 0-1)
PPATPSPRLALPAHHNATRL (Biotin-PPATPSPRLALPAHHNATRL) [Na+/Pi cotransporter 2] ... 1 (A450 nm 0-1)
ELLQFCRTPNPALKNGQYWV (Biotin-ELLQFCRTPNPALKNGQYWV) ... 3 (A450 nm 2-3)

Now let's try a different one.
Query: Return reported Classification; argument: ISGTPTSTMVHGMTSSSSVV (Biotin-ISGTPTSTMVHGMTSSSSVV) [Clasp-2]
Result: 1 (A450 nm 0-1)

###

target: PDZ protein (GST-PDZ fusion) (Homo sapiens); construct: made in house; host or cells: E. coli (DH5alpha, BL21 or JM109); assay: G' assay (10 uM PL peptide), results of TABLE 7 and TABLE 12; assay type: binding; details: PDZ Atrophin-1 Inter. Prot., PDZ Domain 5
Ends that are not written are not given here. * marks the point of attachment. Biotin = O=C1N[C@H]2[C@H](CS[C@H]2CCCCC(=O)*)N1
# Classification annotations

Study these solved cases before continuing.
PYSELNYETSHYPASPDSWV (Biotin-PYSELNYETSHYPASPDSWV) [catenin - delta 2] ... 5 (A450 nm of 4 more than 2× repeated)
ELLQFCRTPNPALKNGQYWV (Biotin-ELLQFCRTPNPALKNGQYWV) ... 2 (A450 nm 1-2)
A2AA_HUMAN (modified) (Biotin-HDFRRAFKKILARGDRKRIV; not fully specified) ... 1 (A450 nm 0-1)

Query: Return reported Classification; argument: `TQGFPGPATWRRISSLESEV`
Result: 5 (A450 nm of 4 more than 2× repeated)

Query: What about this substance? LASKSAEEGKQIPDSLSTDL (Biotin-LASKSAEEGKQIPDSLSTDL) [Dock2]
Result: 1 (A450 nm 0-1)

Query: What about this substance? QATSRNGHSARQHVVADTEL (Biotin-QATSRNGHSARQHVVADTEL) [CD34]
Result: 1 (A450 nm 0-1)

###

Molecular target: PDZ protein (GST-PDZ fusion) (Homo sapiens, UniProt Q6P0Q8)
Construct: made in house; host or cells: E. coli (DH5alpha, BL21 or JM109)
Sequence (Q6P0Q8 whole entry, the tested form may be a part): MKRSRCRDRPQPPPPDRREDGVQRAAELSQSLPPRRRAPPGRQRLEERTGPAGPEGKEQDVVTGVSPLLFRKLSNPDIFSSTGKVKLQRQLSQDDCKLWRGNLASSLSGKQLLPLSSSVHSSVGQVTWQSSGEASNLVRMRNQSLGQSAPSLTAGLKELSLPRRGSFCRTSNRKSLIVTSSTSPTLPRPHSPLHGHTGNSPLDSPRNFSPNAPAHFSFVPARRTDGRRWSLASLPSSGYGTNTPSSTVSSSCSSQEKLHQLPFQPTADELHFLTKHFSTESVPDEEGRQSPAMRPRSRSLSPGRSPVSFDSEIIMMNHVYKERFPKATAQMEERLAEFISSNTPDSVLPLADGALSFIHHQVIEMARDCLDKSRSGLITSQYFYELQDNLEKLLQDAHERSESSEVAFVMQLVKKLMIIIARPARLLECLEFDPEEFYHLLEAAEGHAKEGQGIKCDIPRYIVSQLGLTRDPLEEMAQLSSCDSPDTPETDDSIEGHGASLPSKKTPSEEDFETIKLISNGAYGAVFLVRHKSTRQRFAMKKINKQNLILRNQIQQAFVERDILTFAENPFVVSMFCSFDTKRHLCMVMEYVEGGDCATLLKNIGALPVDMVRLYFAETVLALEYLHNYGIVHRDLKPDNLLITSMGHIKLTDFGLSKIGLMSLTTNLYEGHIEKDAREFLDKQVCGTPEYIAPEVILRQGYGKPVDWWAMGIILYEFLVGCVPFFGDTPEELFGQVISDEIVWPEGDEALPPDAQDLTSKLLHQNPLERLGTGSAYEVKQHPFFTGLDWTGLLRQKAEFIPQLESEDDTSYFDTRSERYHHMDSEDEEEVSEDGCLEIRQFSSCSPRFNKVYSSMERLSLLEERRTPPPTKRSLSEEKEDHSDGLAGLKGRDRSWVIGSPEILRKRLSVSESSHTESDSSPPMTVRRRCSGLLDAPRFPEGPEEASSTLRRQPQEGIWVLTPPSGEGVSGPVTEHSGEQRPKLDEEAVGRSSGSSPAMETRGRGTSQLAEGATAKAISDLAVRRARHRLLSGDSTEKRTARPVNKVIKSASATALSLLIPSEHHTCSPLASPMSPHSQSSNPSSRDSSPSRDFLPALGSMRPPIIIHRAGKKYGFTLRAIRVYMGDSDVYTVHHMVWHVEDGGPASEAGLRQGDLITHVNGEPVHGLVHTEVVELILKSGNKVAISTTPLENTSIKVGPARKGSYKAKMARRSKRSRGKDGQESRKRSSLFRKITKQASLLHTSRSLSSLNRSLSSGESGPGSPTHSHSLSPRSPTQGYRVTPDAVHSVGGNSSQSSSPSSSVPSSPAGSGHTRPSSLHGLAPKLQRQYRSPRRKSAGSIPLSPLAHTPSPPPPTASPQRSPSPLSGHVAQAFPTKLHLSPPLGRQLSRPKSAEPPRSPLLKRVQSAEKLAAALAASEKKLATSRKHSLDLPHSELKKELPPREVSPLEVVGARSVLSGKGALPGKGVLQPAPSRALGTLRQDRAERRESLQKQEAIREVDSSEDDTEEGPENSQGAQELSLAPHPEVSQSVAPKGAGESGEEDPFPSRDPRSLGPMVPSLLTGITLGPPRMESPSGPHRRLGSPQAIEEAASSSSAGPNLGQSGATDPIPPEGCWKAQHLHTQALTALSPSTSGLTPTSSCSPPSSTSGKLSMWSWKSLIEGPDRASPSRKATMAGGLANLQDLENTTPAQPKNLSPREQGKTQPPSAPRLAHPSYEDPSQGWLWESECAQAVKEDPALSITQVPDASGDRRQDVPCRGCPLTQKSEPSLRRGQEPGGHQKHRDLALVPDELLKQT
Experiment: G' assay (10 uM PL peptide), results of TABLE 7 and TABLE 12
Assay type: binding
Details: PDZ KIAA0807(S), PDZ Domain 1
Text: Each page of TABLE 7 and 12 includes seven columns. The columns in each table are numbered from left to right such that the left-most column in each table is column 1 and the right-most column in each table is column 7. […] Finally, the seventh column labeled “Classification” is another measure of the level of binding. In particular, it provides an absorbance value at 450 nm which indicates the amount of PL peptide bound to the PDZ protein. […]
Ends that are not written are not given here. * marks the point of attachment. Biotin = O=C1N[C@H]2[C@H](CS[C@H]2CCCCC(=O)*)N1
endpoint: Classification

Study these solved cases before continuing.
DAKLKSDGTIAAITEKETHF (Biotin-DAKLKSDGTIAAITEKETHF) [GABA transporter 3] ... 1 (A450 nm 0-1)
APC—adenomatous polyposis coli protein (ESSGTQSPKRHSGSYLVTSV) ... 1 (A450 nm 0-1)
KPQIAALKEETEEEVQDTRL (Biotin-KPQIAALKEETEEEVQDTRL) ... 2 (A450 nm 1-2)
GTSDMKDLVGNIEQNEHSVI [Mannose Receptor] ... 1 (A450 nm 0-1)
AKT-1 (Biotin-VDSERRPHFPQFSYSASSTA) ... 1 (A450 nm 0-1)
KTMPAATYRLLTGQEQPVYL (Biotin-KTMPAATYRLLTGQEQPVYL) [MINT-3] ... 1 (A450 nm 0-1)
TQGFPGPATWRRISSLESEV ... 5 (A450 nm of 4 more than 2× repeated)
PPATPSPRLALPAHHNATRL (Biotin-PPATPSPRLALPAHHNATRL) [Na+/Pi cotransporter 2] ... 5 (A450 nm of 4 more than 2× repeated)
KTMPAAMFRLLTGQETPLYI (Biotin-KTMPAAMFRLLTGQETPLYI) [MINT-2] ... 4 (A450 nm 3-4)

Now let's try a different one.
Query: Return reported Classification; argument: LNETTETQRTLLNGDLQTSI (Biotin-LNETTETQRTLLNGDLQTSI) [SSTR2 (somatostatin recepor 2)]
Result: 2 (A450 nm 1-2)

###

target: PDZ protein (GST-PDZ fusion) (Homo sapiens); construct: made in house; host or cells: E. coli (DH5alpha, BL21 or JM109); assay: G' assay (10 uM PL peptide), results of TABLE 7 and TABLE 12; type: binding; settings: PDZ AIPC, PDZ Domain 1
Ends that are not written are not given here. * marks the point of attachment. Biotin = O=C1N[C@H]2[C@H](CS[C@H]2CCCCC(=O)*)N1
endpoint: Classification

VISKATPALPTVSISSSAEV (Biotin-VISKATPALPTVSISSSAEV) [Clasp-1] ... 1 (A450 nm 0-1)

Query: Lab note: need Classification for GGGGGSGGGGGSGIESVKI [GLUR2 (glutamate receptor 2-modified)] on PDZ protein (GST-PDZ fusion) (Homo sapiens), anyone have it?
Result: 2 (A450 nm 1-2)

Query: What about this sequence? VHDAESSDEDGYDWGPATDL (Biotin-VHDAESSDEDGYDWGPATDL) [zona occludens 3 (ZO-3)]
Result: 1 (A450 nm 0-1)

Query: What about this sequence? SSKSKSSEESQTFFGLYKL (Biotin-SSKSKSSEESQTFFGLYKL) [Fas Ligand]
Result: 2 (A450 nm 1-2)

###

target: PDZ protein (GST-PDZ fusion) (Homo sapiens); construct: made in house; host or cells: E. coli (DH5alpha, BL21 or JM109); assay: G' assay (10 uM PL peptide), results of TABLE 7 and TABLE 12; type: binding; conditions: PDZ ZO-1, PDZ Domain 2
Ends that are not written are not given here. * marks the point of attachment. Biotin = O=C1N[C@H]2[C@H](CS[C@H]2CCCCC(=O)*)N1
endpoint: Classification

TEGNESSEATSPVNAIYSLA (Biotin-TEGNESSEATSPVNAIYSLA) [neurofascin (chicken)] ... 1 (A450 nm 0-1)
A2AA_HUMAN (modified) (Biotin-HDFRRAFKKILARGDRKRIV; not fully specified) ... 4 (A450 nm 3-4)
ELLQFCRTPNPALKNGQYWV (Biotin-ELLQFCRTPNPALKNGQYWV) ... 4 (A450 nm 3-4)

Now let's try a different one.
Query: Lab note: need Classification for PSSRASSRASSRPRPDDLEI (Biotin-PSSRASSRASSRPRPDDLEI) [CX43] on PDZ protein (GST-PDZ fusion) (Homo sapiens), anyone have it?
Result: 2 (A450 nm 1-2)

###

# Classification annotations
Molecular target: PDZ protein (GST-PDZ fusion) (Homo sapiens, UniProt Q6P0Q8)
Construct: made in house; host or cells: E. coli (DH5alpha, BL21 or JM109)
Assay: G' assay (10 uM PL peptide), results of TABLE 7 and TABLE 12
Assay type: binding
Conditions: PDZ KIAA807, PDZ Domain not given
Description: Each page of TABLE 7 and 12 includes seven columns. The columns in each table are numbered from left to right such that the left-most column in each table is column 1 and the right-most column in each table is column 7. […] Finally, the seventh column labeled “Classification” is another measure of the level of binding. In particular, it provides an absorbance value at 450 nm which indicates the amount of PL peptide bound to the PDZ protein. […]
Ends that are not written are not given here. * marks the point of attachment. Biotin = O=C1N[C@H]2[C@H](CS[C@H]2CCCCC(=O)*)N1

Study these solved cases before continuing.
AKT-1 (Biotin-VDSERRPHFPQFSYSASSTA) ... 1 (A450 nm 0-1)
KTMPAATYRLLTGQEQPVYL (Biotin-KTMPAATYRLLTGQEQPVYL) [MINT-3] ... 1 (A450 nm 0-1)

Now let's try a different one.
Query: Lab note: need Classification for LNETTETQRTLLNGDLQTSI (Biotin-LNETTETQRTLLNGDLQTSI) [SSTR2 (somatostatin recepor 2)] on PDZ protein (GST-PDZ fusion) (Homo sapiens, UniProt Q6P0Q8), anyone have it?
Result: 2 (A450 nm 1-2)
